# assay summary: chemical genetic growth profiling, strain panel (AID 1159580);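 also: tested at 20 µM; growth read once vehicle control cultures reached saturation at 30 °C; 1 = growth at the plate median or of vehicle wells; lower values mean less growth of the strain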
# recorded conditions: S. cerevisiae deletion strains, growth OD, locus YLR418C, strain cdc73, stronger effect = lower value
The whole screen tested about 5,500 compounds, of which about 2,000 (36%) were called active. Roughly 18% stayed inconclusive and do not appear here. The list shows a part of the results.
recorded metric: normalized growth

>>> obs_value("CC(=O)O[C@H]1CC[C@@]2(C)C(=CCC3C2CC[C@@]2(C)C3CC[C@@H]2C(C)CCCC(C)C)C1 (some centres undefined)")
1.04
>>> obs_value("CCC(CCC(C)C1CCC2C3CC=C4C[C@@H](OC(C)=O)CC[C@]4(C)C3CC[C@]12C)C(C)C (some centres undefined)")
0.959
>>> obs_value("CN=C1CN(O)C(c2ccccc2)=c2cc(Cl)ccc2=N1")
0.951
>>> obs_value("CC1(C)CC2C1CCC1(C)OC2(C)CCC1O (centres undefined)")
1.08
>>> obs_value("CC[C@@H](C(=O)[C@@H](C)[C@@H](O)[C@H](C)[C@@H]1O[C@@H]([C@@H](CC)C(=O)O)CC[C@@H]1C)[C@H]1OC2(C=C[C@@H](O)[C@]3(CC[C@@](C)([C@H]4CC[C@](O)(CC)[C@H](C)O4)O3)O2)[C@H](C)C[C@@H]1C (some centres undefined)")
0.681
>>> obs_value("CCCNC(C)C(=O)Nc1ccccc1C (centres undefined)")
0.967
>>> obs_value("CC[C@@]1(C2O[C@@H](C3O[C@@](O)(CC)[C@H](C)C[C@@H]3C)C[C@@H]2C)CC[C@H]([C@]2(C)CCC3(C[C@H](O)[C@@H](C)[C@@H]([C@H](C)[C@@H](OC)[C@H](C)C(=O)O)O3)O2)O1 (some centres undefined)")
0.993
>>> obs_value("COS(C)(=O)=O")
0.95
>>> obs_value("CC1(C)CC2C1CCC1(C)OC1CCC2(C)O (centres undefined)")
1.11
>>> obs_value("COc1cc(C(=O)O)cc(OC)c1O")
1.01
>>> obs_value("CC(=O)O[C@H]1CC[C@@]2(C)C(=CCC3C2CC[C@]2(C)C(=O)CCC32)C1 (some centres undefined)")
0.698
>>> obs_value("O=C(O)c1cc(=O)c(O)c2c(O)c(O)ccc2c1")
0.946
>>> obs_value("COc1ccc(C[C@H](N)C(=O)N[C@@H]2[C@@H](CO)OC(n3cnc4c(N(C)C)ncnc43)[C@@H]2O)cc1 (some centres undefined)")
0.988
>>> obs_value("C#C[C@]1(O)CCC2C3CCc4cc(O)ccc4C3CC[C@@]21C (some centres undefined)")
0.791
>>> obs_value("CCCN(CCC)C(=O)C(CCC(=O)O)NC(=O)c1ccccc1 (centres undefined)")
1
>>> obs_value("CC[C@@H](C(=O)O)[C@@H]1O[C@@H]([C@@H](C)[C@H](O)[C@H](C)C(=O)[C@H](CC)[C@H]2O[C@]3(C=C[C@@H](O)[C@]4(CC[C@@](C)(C5CC[C@](O)(CC)[C@H](C)O5)O4)O3)[C@H](C)C[C@@H]2C)[C@@H](C)C[C@H]1C (some centres undefined)")
0.162
>>> obs_value("CC(Cc1ccc(O)c(O)c1)(NN)C(=O)O (centres undefined)")
1.07
>>> obs_value("O=C(O)P(=O)(O)O")
0.91
>>> obs_value("NC(=O)c1cnccn1")
1

----------
# assay summary: chemical genetic growth profiling, strain panel (AID 1159580);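 also: tested at 20 µM; growth read once vehicle control cultures reached saturation at 30 °C; 1 = growth at the plate median or of vehicle wells; lower values mean less growth of the strain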
# recorded conditions: S. cerevisiae deletion strains, growth OD, locus YOR106W, strain vam3
Among all 5,500 compounds or so, about 2,000 (36%) were called active. Another 18% or so got no clear call; they are omitted. Cut-off read from the data, not from the text of the source: active = normalized growth mostly below about 0.91 (no sharp cut-off); inconclusive = no clear call, values can overlap the other calls; inactive = mostly above about 0.92. The list shows a part of the results.
Outcomes: class 1 for active, class 0 for inactive

>>> class_assignment("CCN(CC)CCOC(=O)C(Cc1cccc2ccccc12)CC1CCCO1 (stereo not given)")
"class 0"
>>> class_assignment("O=C(O)c1cc(=O)c(O)c2c(O)c(O)c(O)cc2c1")
"class 1"
>>> class_assignment("CC1(C)C2CC(=O)O[C@@]3(C)C4=CC(=O)O[C@@H](c5ccoc5)[C@]4(C)CCC3[C@@]2(C)C=C[C@H]1O (stereo not given in full)")
"class 0"
>>> class_assignment("CCCNC(C)C(=O)Nc1ccccc1C (stereo not given)")
"class 0"
>>> class_assignment("COc1cc2c(cc1O)CC1c3c(cc(O)c(OC)c3-2)CCN1C (stereo not given)")
"class 0"
>>> class_assignment("C=CCc1cc(OC)c2c(c1OC)OCO2")
"class 0"
>>> class_assignment("Nc1c(Br)cc(Br)cc1CNC1CCC(O)CC1 (stereo not given)")
"class 0"
>>> class_assignment("O=C(NC(Cc1cc(=O)[nH]c2ccccc12)C(=O)O)c1ccc(Cl)cc1 (stereo not given)")
"class 0"
>>> class_assignment("S=c1[nH]c2ccccc2s1")
"class 1"
>>> class_assignment("O=C1O[C@@H](CO)[C@H](O)[C@@H](O)[C@@H]1O")
"class 0"
>>> class_assignment("CC(COc1ccccc1)N(CCCl)Cc1ccccc1 (stereo not given)")
"class 0"
>>> class_assignment("O=C(/C=C/c1ccc(O)c(O)c1)O[C@@H]1C[C@](O)(C(=O)O)C[C@@H](O)[C@H]1O")
"class 0"
>>> class_assignment("CCCN(CCC)C(=O)C(CCC(=O)O)NC(=O)c1ccccc1 (stereo not given)")
"class 0"
>>> class_assignment("CN(Cc1cc(Br)cc(Br)c1N)C1CCCCC1")
"class 0"
>>> class_assignment("CC1=CC(=O)CC(C)(C)C1(O)/C=C/C(C)=C\\C(=O)O (stereo not given)")
"class 0"
>>> class_assignment("COc1ccc(C=CC(=O)c2ccc(O)cc2O)cc1OC")
"class 1"
>>> class_assignment("CS(=O)(=O)OCCCCOS(C)(=O)=O")
"class 0"
>>> class_assignment("COc1ccc(-c2cc(C(F)F)nn2-c2ccc(S(N)(=O)=O)cc2)cc1F")
"class 0"
>>> class_assignment("O=C(NC(=O)c1c(F)cccc1F)Nc1cc(Cl)c(OC(F)(F)C(F)C(F)(F)F)cc1Cl (stereo not given)")
"class 0"
>>> class_assignment("CCOc1ccc2c(c1)C(C)=CC(C)(C)N2")
"class 0"
>>> class_assignment("COc1ccc(/C=C/C(=O)c2cc(O)ccc2O)cc1")
"class 1"
>>> class_assignment("CN(Cc1cnc2nc(N)nc(N)c2n1)c1ccc(C(=O)NC(CCC(=O)O)C(=O)O)cc1 (stereo not given)")
"class 1"
>>> class_assignment("Nc1nc2ncc(CNc3ccc(C(=O)N[C@@H](CCC(=O)O)C(=O)O)cc3)nc2c(=O)[nH]1")
"class 0"
>>> class_assignment("Nc1nc2c(c(=O)[nH]1)N(C=O)C(CNc1ccc(C(=O)N[C@@H](CCC(=O)O)C(=O)O)cc1)CN2 (stereo not given in full)")
"class 0"
>>> class_assignment("O=C(O)c1cc(O)c(O)c(O)c1")
"class 0"
>>> class_assignment("CCOP(=S)(OCC)Oc1ccc2c(C)c(Cl)c(=O)oc2c1")
"class 0"
>>> class_assignment("Oc1ccc(/C=C/c2cc(O)cc(O)c2)cc1")
"class 0"
>>> class_assignment("COc1cc(/C=C/C(=O)O)ccc1O")
"class 0"
>>> class_assignment("OC/C=C/c1ccc(O)c(O)c1")
"class 0"
>>> class_assignment("COc1cc(/C=C/C(=O)O)cc(OC)c1OC")
"class 0"
>>> class_assignment("CC[C@@H](C(=O)[C@@H](C)[C@@H](O)[C@H](C)[C@@H]1O[C@@H]([C@@H](CC)C(=O)O)CC[C@@H]1C)[C@H]1OC2(C=C[C@@H](O)[C@]3(CC[C@@](C)([C@H]4CC[C@](O)(CC)[C@H](C)O4)O3)O2)[C@H](C)C[C@@H]1C (stereo not given in full)")
"class 1"
>>> class_assignment("CC(=O)O[C@H]1C[C@@H](OC(C)=O)C(C)(C)C2C[C@@H](OC(C)=O)[C@]3(C)C(CC[C@@]4(C)[C@H](c5ccoc5)C(=O)[C@H]5O[C@]543)[C@]21C (stereo not given in full)")
"class 0"
>>> class_assignment("O=C(O)CCC(=O)c1ccc(-c2ccccc2)cc1")
"class 0"
>>> class_assignment("CC1(C)CC2C1CCC1(C)OC1CCC2(C)O (stereo not given)")
"class 0"
>>> class_assignment("O=C(O)c1cc(=O)c2c(OCC(O)COc3cccc4oc(C(=O)O)cc(=O)c34)cccc2o1")
"class 0"
>>> class_assignment("NC(=O)c1ccc(N)nc1")
"class 0"
>>> class_assignment("CC(=O)OCC(=O)[C@@]12OC(C)(C)O[C@@H]1CC1C3C[C@H](F)C4=CC(=O)C=C[C@]4(C)[C@@]3(F)[C@@H](O)C[C@@]12C (stereo not given in full)")
"class 0"
>>> class_assignment("CCCCC(CC)CN=C(N)NC(N)=NCCCCCCN=C(N)NC(N)=NCC(CC)CCCC (stereo not given)")
"class 1"
>>> class_assignment("CO[C@@H]1[C@@H](O[C@@H]2O[C@H](C)[C@@H](O[C@H]3C[C@@](C)(O)[C@H](O)[C@H](C)O3)[C@H](N(C)C)[C@H]2O)[C@@H](CC=O)C[C@@H](C)[C@@H](O[C@H]2CC[C@H](N(C)C)[C@@H](C)O2)/C=C/C=C/C[C@H](C)OC(=O)C[C@H]1O")
"class 0"
>>> class_assignment("CC(=O)O[C@H]1CC[C@@]2(C)C(=CCC3C2CC[C@]2(C)C(=O)CCC32)C1 (stereo not given in full)")
"class 0"

Source: PubChem BioAssay AID1159580
